# Test system: LXFL 529
# experimentNotes: NCI tumour cell line growth inhibition, 48 h
Activity calls are given as the source filed them. Rule as the data show it: active = GI50 up to about 1.1 µM and inactive = higher.
Can you tell me GI50 for the items I'm about to list?

Record CS(=O)(=O)CSCSSCS(C)(=O)=O . Reported GI50: 18.1 µM (inactive)

Record CCOC(=O)CNc1nnnn1C1OC(CO)C(O)C1O (configuration not stated) . Reported GI50: > 100 µM (inactive)

Record CCCCCCCCCCCCCCC(O)C1CCC(C(O)CCC(O)CCCCCC(O)CC2=CC(C)OC2=O)O1 (configuration not stated) . Reported GI50: 2.11 µM (inactive)

Record CC(=O)N(C)OC(=O)CC(=O)c1ccccc1 . Reported GI50: > 100 µM (inactive)

Record O=C(c1ccc2c3c(ccc(C(=O)C(F)(F)F)c13)CC2)C(F)(F)F . Reported GI50: 40.3 µM (inactive)

Record O=C(CCc1nnc2s/c(=C\c3ccc([N+](=O)[O-])cc3)c(=O)n12)Nc1ccc(Cl)c(Cl)c1 . Reported GI50: 13.4 µM (inactive)

Record N#C/C1=C(\N)CCSSSC1 . Reported GI50: 33.1 µM (inactive)

Record Cc1ccc(S(=O)(=O)c2ccccn2)cc1 . Reported GI50: > 100 µM (inactive)

Record CC(=O)OCC1OC(n2cnc3c(I)nc(I)nc32)C(OC(C)=O)C1OC(C)=O (configuration not stated) . Reported GI50: 13.4 µM (inactive)

Record FC(F)(F)C1(Cl)C(c2ccccc2)=C1c1ccccc1 . Reported GI50: 13.4 µM (inactive)

Record COC(=O)/C=C\C1C(C(=O)OC)C2(C(=O)OC)CCC1(C(=O)OC)N2 (configuration not stated) . Reported GI50: 6.75 µM (inactive)

Record CCOC(=O)CC1NC(=O)CS1 (configuration not stated) . Reported GI50: > 100 µM (inactive)

* * *

Can you tell me GI50 for the items I'm about to list?
# Test system: PC-3
# experimentNotes: NCI tumour cell line growth inhibition, 48 h
The source made the active and inactive calls. Rule as the data show it: active = GI50 up to about 1.1 µM and inactive = higher.

Record CC1Cc2cc(O)ccc2C2[C@@H]1C1CC[C@H](O)[C@@]1(C)C[C@@H]2O[N+](=O)[O-] (stereo not given in full) . Reported GI50: 20.1 µM (inactive)

Record O=C(CCc1ccccc1)ON1C(=S)C(c2ccccc2)(c2ccccc2)N=C1Sc1ccccc1 . Reported GI50: 34.3 µM (inactive)

Record COc1ccc(C(=C(I)c2ccccc2)c2ccc(OC)cc2)cc1 . Reported GI50: > 100 µM (inactive)

Record COc1cc(S(=O)(=O)Nc2ccc(-c3csc(N4C(=O)C(Cl)C4c4ccccc4)n3)cc2)ccc1Cl (stereo not given) . Reported GI50: > 100 µM (inactive)

Record O=C1C(Sc2ccc3ccccc3c2)=C(Sc2ccc3ccccc3c2)C(=O)c2ccccc21 . Reported GI50: 14.4 µM (inactive)

Record CCCCCc1cc(CCCC)sc1-c1ccco1 . Reported GI50: > 100 µM (inactive)

Record O=C(Nc1ccc(I)cc1C(=O)NCCO)c1cccs1 . Reported GI50: > 100 µM (inactive)

Record C1CNCCN2CCCNCCN(C1)CC2 . Reported GI50: > 100 µM (inactive)

Record O=C1C=CC(=O)c2c1ccc1c3ccccc3n(-c3ccccc3)c21 . Reported GI50: 13.6 µM (inactive)

Record COc1ccc2c(-c3ccc(OCCN(C)C)cc3)c(Oc3ccccc3)c(=O)oc2c1 . Reported GI50: 6.12 µM (inactive)

* * *

Can you tell me GI50 for the items I'm about to list?
# Tested on: NCI-H226
# experimentNotes: NCI tumour cell line growth inhibition, 48 h
Activity calls are given as the source filed them. Cut-off read from the data, not from the text of the source: active = GI50 up to about 1.1 µM and inactive = higher.

Record Nc1nc(N)c2ncn(-c3ccc(Br)cc3)c2n1 . Reported GI50: 40.6 µM (inactive)

Record CSC(SC)=C(C#N)C(=O)Nc1cccc(Cl)c1 . Reported GI50: > 100 µM (inactive)

Record COC(=O)N/N=C(\C)C(CN(C)C)C(c1ccccc1)c1c(O)c2ccccc2oc1=O (stereo unspecified) . Reported GI50: > 100 µM (inactive)

Record O=C1C=CC(=O)c2c1ccc1c3ccccc3n(-c3ccccc3)c21 . Reported GI50: 18.3 µM (inactive)

Record N[C@H](C(=O)O)[C@H](Cl)CC(=O)O . Reported GI50: > 100 µM (inactive)

Record c1ccc([P+](c2ccccc2)(c2ccccc2)c2ccc([P+](c3ccccc3)(c3ccccc3)c3ccccc3)cc2)cc1 . Reported GI50: 65.5 µM (inactive)

Record COC(=O)[C@@H]1CO[C@H](C(C)(C)C)N1C(=O)N1C=CC(=O)C[C@H]1C . Reported GI50: > 100 µM (inactive)

Record N#Cc1ccccc1Sc1ccccc1N . Reported GI50: 13 µM (inactive)

Record COC(=O)c1cc(=O)n(-c2ccc3nn(C)nc3c2)cc1C(=O)OC . Reported GI50: > 100 µM (inactive)

Record COc1ccc2c(c1)CCN1CCCc3ccccc3C21 (stereo unspecified) . Reported GI50: 28.1 µM (inactive)

Record CCC(C)(C)NC1=C(NC(C)=O)C(=O)c2ccccc2C1=O . Reported GI50: > 75 µM (inactive)

* * *

# System: RXF 393
# experimentNotes: NCI tumour cell line growth inhibition, 48 h
Activity calls are given as the source filed them. Rule as the data show it: active = GI50 up to about 1.1 µM and inactive = higher.
Can you tell me GI50 for the items I'm about to list?

Record CC(C)[Si](OC1=C(C(=O)N(C)c2ccccc2Cl)CCC1)(C(C)C)C(C)C . Reported GI50: 18.3 µM (inactive)

Record N#Cc1nc(C2CC2)oc1N . Reported GI50: > 100 µM (inactive)

Record CCCCC1(O)CC2CC1C(C)C2(C)C (stereo unspecified) . Reported GI50: > 100 µM (inactive)

Record COC(=O)C1SC(N(C)c2ccccc2)=NC12c1ccccc1Nc1ccccc12 (stereo unspecified) . Reported GI50: 31.3 µM (inactive)

Record Cc1nc2ccc(Cl)cc2c2c1CCN2c1ccc(F)cc1 . Reported GI50: 17.1 µM (inactive)

Record O=c1oc2c([N+](=O)[O-])cc([N+](=O)[O-])cc2c2ccccc12 . Reported GI50: > 100 µM (inactive)

* * *

# Test system: OVCAR-5
# experimentNotes: NCI tumour cell line growth inhibition, 48 h
The source made the active and inactive calls. Rule as the data show it: active = GI50 up to about 1.1 µM and inactive = higher.
Entry note: the call must match one of active, inactive

Please share the test call associated with CC/C=C\C=C/C(=O)N/C=C/CCC .
inactive

Please share the test call associated with Cc1cc(-c2nc3cc(F)ccc3s2)ccc1N .
active

Please share the test call associated with Cn1c(=O)nc2n(-c3ccc(O)cc3)c3ccccc3nc-2c1=O .
inactive

Please share the test call associated with O=C(O)CCCCCCC[C@@H]1S[C@H]1CCCCCCO .
inactive

Please share the test call associated with N#C/C(N)=C(C#N)/N=C/Nc1ccccc1N .
inactive

Please share the test call associated with CCC1(C)NC(c2cnccn2)=NN1c1ccc(Cl)cc1 (centres undefined) .
inactive

Please share the test call associated with CSC(SC)=C(C#N)C(=O)Nc1cccc(Cl)c1 .
inactive

Please share the test call associated with CC(C)=CCC[C@](C)(O)[C@H]1CC[C@]2(C)[C@@H]1[C@H](O)C[C@@H]1[C@@]3(C)CC[C@H](O[C@@H]4O[C@H](CO)[C@@H](O)[C@H](O)[C@H]4O)C(C)(C)[C@@H]3CC[C@]12C [GINSENOSIDE RH2] .
inactive

Please share the test call associated with CC1Cc2cc(O)ccc2C2[C@@H]1C1CC[C@H](O)[C@@]1(C)C[C@@H]2O[N+](=O)[O-] (some centres undefined) .
inactive

* * *

# Test system: SF-295
# experimentNotes: NCI tumour cell line growth inhibition, 48 h
Calls of active or inactive are those of the source. Rule as the data show it: active = GI50 up to about 1.1 µM and inactive = higher.
Entry note: the call must match one of active, inactive

Please share the test call associated with CCN1CCN(c2nc3ccccc3c3c2CCOc2ccccc2-3)CC1 .
inactive

Please share the test call associated with C=C([C@@]1(O)C[C@H]2[C@H](CCC2(OC)OC)[C@@H]2c3ccccc3O[C@@H]21)[Si](C)(C)C .
inactive

Please share the test call associated with COc1cc2c(c(OC)c1OC)-c1ccc(SC)c(=O)cc1[C@@H](NC(=O)c1ccc(OC(C)=O)cc1)CC2 .
active

Please share the test call associated with COC(=O)C1CCC2(CC1)NC(=O)NC2=O (stereo not given) .
inactive

Please share the test call associated with O=C1CCC(c2nc3cc(Cl)ccc3o2)C(=O)N1 (stereo not given) .
inactive

Please share the test call associated with COC(=O)N/N=C(\C)C(CN(C)C)C(c1ccccc1)c1c(O)c2ccccc2oc1=O (stereo not given) .
inactive

Please share the test call associated with CC1(C)Oc2ccc3c(=O)cc(-c4cccs4)oc3c2C1C(=O)O (stereo not given) .
inactive

Please share the test call associated with CCCCC1(O)CC2CC1C(C)C2(C)C (stereo not given) .
inactive

Please share the test call associated with CCOC(=O)Cc1ccc(Nc2nc3ccccc3nc2C(=O)OCC)cc1 .
inactive

Please share the test call associated with CCOC(=O)c1c2c(n3ccccc13)C(=O)c1ccccc1C2=O .
inactive
